List of CC50 values.
Assay name: in vitro
Cond: human, HepG2 CC50, 48 h, MTT

{"Compound": "N=C(N)N1CCN(c2ccc(NC(=O)c3cc(-c4cc(Cl)ccc4O)[nH]n3)cc2)CC1 [Compound 6G]", "CC50": "> 50 µM"}
{"Compound": "CC(C)(C)OC(=O)N1CCN=C1NCc1ccc(NC(=O)c2cc(-c3cc(Cl)ccc3O)[nH]n2)cc1 [Compound 8D]", "CC50": "> 50 µM"}
{"Compound": "N=C(N)N1CCN(c2cc(NC(=O)c3cc(-c4cc(Cl)ccc4O)[nH]n3)cc(C(F)(F)F)c2)CC1 [Compound 11G]", "CC50": "> 25 µM"}
{"Compound": "O=C(Nc1ccc(CNC2=NCCN2)c(C(F)(F)F)c1)c1cc(-c2cc(Cl)ccc2O)[nH]n1 [Compound 10C]", "CC50": "> 50 µM"}
{"Compound": "N=C(N)NCc1cc(NC(=O)c2cc(-c3cc(Cl)ccc3O)[nH]n2)cc(C(F)(F)F)c1 [Compound 9G]", "CC50": "> 50 µM"}
{"Compound": "O=C(Nc1cccc(CN2CCOCC2)c1)c1cc(-c2cc(Cl)ccc2O)[nH]n1 [Compound 2]", "CC50": "~50 µM"}
{"Compound": "CC(C)(C)OC(=O)N1CCN=C1NCc1ccc(NC(=O)c2cc(-c3cc(Cl)ccc3O)[nH]n2)cc1C(F)(F)F [Compound 10D]", "CC50": "11 µM"}
{"Compound": "O=C(Nc1ccc(CNC2=NCCN2)cc1)c1cc(-c2cc(Cl)ccc2O)[nH]n1 [Compound 8C]", "CC50": "> 50 µM"}
{"Compound": "N=C(N)N1CCN(c2ccc(NC(=O)c3cc(-c4cc(Cl)ccc4O)[nH]n3)cc2C(F)(F)F)CC1 [Compound 12G]", "CC50": "30 µM"}
{"Compound": "O=C(c1cc(-c2cc(Cl)ccc2O)[nH]n1)N1CCNCC1 [Compound 14A]", "CC50": "> 50 µM"}
{"Compound": "N=C(N)N1CCN(c2cc(NC(=O)c3cc(-c4cc(Cl)ccc4O)[nH]n3)ccc2C(F)(F)F)CC1 [Compound 13G]", "CC50": "> 25 µM"}
{"Compound": "O=C(Nc1cc(CNC2=NCCN2)cc(C(F)(F)F)c1)c1cc(-c2cc(Cl)ccc2O)[nH]n1 [Compound 9C]", "CC50": "> 50 µM"}
{"Compound": "O=C(Nc1ccc(N2CCNCC2)c(C(F)(F)F)c1)c1cc(-c2cc(Cl)ccc2O)[nH]n1 [Compound 12A]", "CC50": "6 µM"}
{"Compound": "CC(C)(C)OC(=O)N1CCN=C1NCc1cc(NC(=O)c2cc(-c3cc(Cl)ccc3O)[nH]n2)cc(C(F)(F)F)c1 [Compound 9D]", "CC50": "14 µM"}

* * *

System: Streptococcus pneumoniae (DSM20566)
Assay name: In vitro antibacterial activity (MIC), S. pneumoniae
Assay type: cell-based
Cond: Streptococcus pneumoniae, DSM20566; Table S2, with standard deviation; read-out: Sp MIC95
List of MIC values.

{"Compound": "O=C(Nc1cc(N2CCN(C3=NCCN3)CC2)cc(C(F)(F)F)c1)c1cc(-c2cc(Cl)ccc2O)[nH]n1 [Compound 11C]", "System tested": "Streptococcus pneumoniae (DSM20566)", "Value operator": "=", "MIC, µM": 7}
{"Compound": "O=C(Nc1ccc(N2CCNCC2)c(C(F)(F)F)c1)c1cc(-c2cc(Cl)ccc2O)[nH]n1 [Compound 12A]", "System tested": "Streptococcus pneumoniae (DSM20566)", "Value operator": "=", "MIC, µM": 8}
{"Compound": "N=C(N)NCc1cc(NC(=O)c2cc(-c3cc(Cl)ccc3O)[nH]n2)cc(C(F)(F)F)c1", "System tested": "Streptococcus pneumoniae (DSM20566)", "Value operator": ">", "MIC, µM": 50}
{"Compound": "CC(C)(C)OC(=O)NCc1cccc(NC(=O)c2cc(-c3cc(Cl)ccc3O)[nH]n2)c1", "System tested": "Streptococcus pneumoniae (DSM20566)", "Value operator": ">", "MIC, µM": 50}

The origin of these recorded values is paper PMC11938010.
